Target: T1, Activin A (ligand of the Activin 2B Receptor/SMAD reporter assay) (UniProt P08476 311-426)
T1 sequence (looked up): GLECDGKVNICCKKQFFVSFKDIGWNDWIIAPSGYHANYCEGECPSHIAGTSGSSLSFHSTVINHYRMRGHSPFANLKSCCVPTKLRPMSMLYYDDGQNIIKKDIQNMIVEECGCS
Test: cell-based or functional assay
parameter: Activin A-ActRIIB SMAD IC50 pM (pM)
Entry rule: numbers only, all in pM.

In plain terms, anti-Activin A antibody Clone I (IgG) (antibody, V domains shown, IgG format; also called Antibody I) VH: QVQLVQSGAEVKKPGSSVKVSCKASGGTFSNYAISWVRQAPGQGLEWMGYIIPFFGTANYAQKFQGRVTITADESTSTAYMELSSLRSEDTAVYYCARGGSGYSTSWGSSLYWGQGTLVTVSS VL: EIVLTQSPGTLSLSPGERATLSCRASQSVSSSYLAWYQQKPGQAPRLLIYGASYRATGIPDRFSGSGSGTDFTLTISRLEPEDFAVYYCLQSGVFPYTFGGGTKVEIKR has a documented Activin A-ActRIIB SMAD IC50 pM of 1.09

Activin A-ActRIIB SMAD IC50 pM reading for anti-Activin A antibody Clone E (IgG) (antibody, V domains shown, IgG format; also called Antibody E) VH: QVQLVQSGAEVKKPGASVKVSCKASGYTFHGYNMHWVRQAPGQGLEWMGSINPYSGYTIYAQKFQGRVTMTRDTSISTAYMELSRLRSDDTAVYYCARARDIAAAGLGAFDYWGQGTLVTVSS VL: EIVLTQSPGTLSLSPGERATLSCRASQSVRSSYLAWYQQKPGQAPRLLIYGASSRATGIPDRFSGSGSGTDFTLTISRLEPEDFAVYYCQQYVSYPRTFGGGTKVEIKR : 16.5

Reported Activin A-ActRIIB SMAD IC50 pM of anti-Activin A antibody Clone H (IgG) (antibody, V domains shown, IgG format; also called Antibody H) VH: QVQLVQSGAEVKKPGASVKVSCKASGYTFTGYHIHWVRQAPGQGLEWMGHISAYSGTTNYAQKLQGRVTMTTDTSTSTAYMELRSLRSDDTAVYYCARARDIAAAGLGAFDYWGQGTLVTVSS VL: EIVLTQSPGTLSLSPGERATLSCRASQSVRSSYLAWYQQKPGQAPRLLIYGASSRATGIPDRFSGSGSGTDFTLTISRLEPEDFAVYYCQQYSNYPRTFGGGTKVEIKR : 36.9

anti-Activin A antibody Clone L (IgG) (antibody, V domains shown, IgG format; also called Antibody L) VH: QVQLQESGPGLVKPSETLSLTCAVSGYSISSGYYWGWIRQPPGKGLEWIGSIYHSGSTYYNPSLKSRVTISVDTSKNQFSLKLSSVTAADTAVYYCAREAGSGYWYLSVYGMDVWGQGTTVTVSS VL: EIVLTQSPATLSVSPGERATLSCRASQSVSSNLAWYQQKPGQAPRLLIYGASTRATGIPARFSGSGSGTEFTLTISSLQSEDFAVYYCQQSDDWPWTFGGGTKVEIKR yielded Activin A-ActRIIB SMAD IC50 pM of 200

Taken from patent US20260265358A1.
